Tested on: TK-10
protocol_summary: NCI tumour cell line growth inhibition, 48 h
The source made the active and inactive calls. Rule as the data show it: active = GI50 up to about 1.1 µM and inactive = higher.
Classes used: 1 for active, 0 for inactive

O=C1N[C@@H](c2c[nH]c3cc(Br)ccc23)C(=O)N[C@H]1c1c[nH]c2cc(Br)ccc12 | 0
CN1C(=O)C2(Cc3cn(C45CC67SSC(CO)(C(=O)N6C4Nc4ccccc45)N(C)C7=O)c4ccccc34)SSC1(CO)C(=O)N2C (centres undefined) | 1
CCCC[C@H]1C(=O)O[C@H](C)[C@H](NC(=O)c2cccc(NC=O)c2O)C(=O)O[C@@H](C)[C@@H]1OC(=O)CC(C)C [ANTIMYCIN A3] | 0
CCOc1nc(-c2ccccc2)cc(-c2ccc(N3CCOCC3)cc2)c1C#N | 0
Fc1ccc(NCn2nc(COc3ccccc3Cl)n(/N=C/c3ccc(-c4ccc(Cl)cc4Cl)o3)c2=S)cc1Cl | 0
CC1(C)OC(=S)N(c2ccccc2)C12C=Cc1cc3ccccc3cc1O2 (centres undefined) | 0
C=C1C[C@H](O)[C@H](Br)C(C)(C)C12CCC(C)(Cl)C(Br)C2 (some centres undefined) | 0
C[N+](C)(C)CCOP(=O)([O-])OCCNC(=O)c1ccc2ccccc2c1 | 0
O=C(O)c1ccccc1/C=N\N=C1NCCCCN1 | 0
